biological target: Mast/stem cell growth factor receptor Kit (Homo sapiens, UniProt P10721, T670I); assay: Inhibition of cKIT T670I mutant in human GIST-5R cells assessed as downregulation of ERK phosphorylation at T202/204 after 1 hr by Western blot analysis; type: cell-based
Sequence (P10721 26-976 T670I limits assumed): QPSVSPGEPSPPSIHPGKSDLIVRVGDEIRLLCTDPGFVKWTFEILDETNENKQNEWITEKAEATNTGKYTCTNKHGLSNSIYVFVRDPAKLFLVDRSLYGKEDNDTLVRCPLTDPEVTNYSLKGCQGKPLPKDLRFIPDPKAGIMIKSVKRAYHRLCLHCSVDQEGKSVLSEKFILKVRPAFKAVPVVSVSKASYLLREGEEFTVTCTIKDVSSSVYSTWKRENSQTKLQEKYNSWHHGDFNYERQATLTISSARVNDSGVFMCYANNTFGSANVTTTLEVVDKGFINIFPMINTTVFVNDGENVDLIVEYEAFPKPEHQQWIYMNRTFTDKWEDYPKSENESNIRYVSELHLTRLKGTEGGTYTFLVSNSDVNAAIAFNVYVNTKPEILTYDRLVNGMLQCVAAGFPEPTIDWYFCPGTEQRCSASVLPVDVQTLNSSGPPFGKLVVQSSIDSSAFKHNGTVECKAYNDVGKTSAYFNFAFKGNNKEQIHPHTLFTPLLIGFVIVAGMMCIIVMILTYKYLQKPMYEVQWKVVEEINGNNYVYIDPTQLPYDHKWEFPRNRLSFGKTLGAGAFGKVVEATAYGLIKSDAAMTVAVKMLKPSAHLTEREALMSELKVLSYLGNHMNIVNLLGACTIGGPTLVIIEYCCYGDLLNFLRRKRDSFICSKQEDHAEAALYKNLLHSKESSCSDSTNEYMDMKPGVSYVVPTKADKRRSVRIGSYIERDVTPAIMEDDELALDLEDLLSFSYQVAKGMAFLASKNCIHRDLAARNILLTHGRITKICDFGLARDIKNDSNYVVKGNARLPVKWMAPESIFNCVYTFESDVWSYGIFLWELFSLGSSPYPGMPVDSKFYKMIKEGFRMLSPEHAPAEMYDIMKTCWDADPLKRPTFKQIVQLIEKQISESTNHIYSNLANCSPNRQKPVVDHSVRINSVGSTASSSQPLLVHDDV
pEC50: −log10 of the molar value.
PARAMETER: pEC50

Per the record, CCC(=O)NCC1CCN(c2ccc(NC(=O)Nc3cccc(Oc4ccnc5cc(OC)c(OC)cc45)c3)cc2C(F)(F)F)CC1 has pEC50 of > 7.00

====

assay: Cytotoxicity mouse BA/F3 cells assessed as cell growth inhibition after 72 hrs by cell titer-glo assay; assay type: cell-based, BaF3
PARAMETER: GI50 at 72 h (nM)
Give bare numbers, in nM.

Consider the reported GI50 at 72 h for these molecules:
| MOLECULE_SMILES | GI50 at 72 h [nM] |
| --- | --- |
| COc1cc2nccc(Oc3cccc(NC(=O)Nc4ccc(N5CCC(NC(=O)C6=CCCCC6)CC5)c(C(F)(F)F)c4)c3)c2cc1OC | 1100 |
| COc1cc2nccc(Oc3cccc(NC(=O)Nc4ccc(N5CCC(NC(=O)CN(C)C)CC5)c(C(F)(F)F)c4)c3)c2cc1OC | 2900 |

Turning now to a further record.
Per the record, CCN1CCC(C(=O)NC2CCN(c3ccc(NC(=O)Nc4cccc(Oc5ccnc6cc(OC)c(OC)cc56)c4)cc3C(F)(F)F)CC2)CC1 has GI50 at 72 h of 1300

====

experiment: Solubility of the compound in PBS buffer at pH 7.4; type: physicochemical
PARAMETER: solubility
Entry format: amount then unit.

Per the record, CCC(=O)NCC1CCN(c2ccc(NC(=O)Nc3cccc(Oc4ccnc5cc(OC)c(OC)cc45)c3)cc2C(F)(F)F)CC1 has solubility of 35 µM

====

system: Mast/stem cell growth factor receptor Kit (Homo sapiens), P10721 [T670I]; test: Inhibition of TEL-fused cKIT T670I mutant (unknown origin) expressed in mouse BA/F3 cells assessed as cell growth inhibition after 72 hrs by cell titer-glo assay; type: cell-based
Sequence (P10721 whole entry T670I, the tested form may be a part): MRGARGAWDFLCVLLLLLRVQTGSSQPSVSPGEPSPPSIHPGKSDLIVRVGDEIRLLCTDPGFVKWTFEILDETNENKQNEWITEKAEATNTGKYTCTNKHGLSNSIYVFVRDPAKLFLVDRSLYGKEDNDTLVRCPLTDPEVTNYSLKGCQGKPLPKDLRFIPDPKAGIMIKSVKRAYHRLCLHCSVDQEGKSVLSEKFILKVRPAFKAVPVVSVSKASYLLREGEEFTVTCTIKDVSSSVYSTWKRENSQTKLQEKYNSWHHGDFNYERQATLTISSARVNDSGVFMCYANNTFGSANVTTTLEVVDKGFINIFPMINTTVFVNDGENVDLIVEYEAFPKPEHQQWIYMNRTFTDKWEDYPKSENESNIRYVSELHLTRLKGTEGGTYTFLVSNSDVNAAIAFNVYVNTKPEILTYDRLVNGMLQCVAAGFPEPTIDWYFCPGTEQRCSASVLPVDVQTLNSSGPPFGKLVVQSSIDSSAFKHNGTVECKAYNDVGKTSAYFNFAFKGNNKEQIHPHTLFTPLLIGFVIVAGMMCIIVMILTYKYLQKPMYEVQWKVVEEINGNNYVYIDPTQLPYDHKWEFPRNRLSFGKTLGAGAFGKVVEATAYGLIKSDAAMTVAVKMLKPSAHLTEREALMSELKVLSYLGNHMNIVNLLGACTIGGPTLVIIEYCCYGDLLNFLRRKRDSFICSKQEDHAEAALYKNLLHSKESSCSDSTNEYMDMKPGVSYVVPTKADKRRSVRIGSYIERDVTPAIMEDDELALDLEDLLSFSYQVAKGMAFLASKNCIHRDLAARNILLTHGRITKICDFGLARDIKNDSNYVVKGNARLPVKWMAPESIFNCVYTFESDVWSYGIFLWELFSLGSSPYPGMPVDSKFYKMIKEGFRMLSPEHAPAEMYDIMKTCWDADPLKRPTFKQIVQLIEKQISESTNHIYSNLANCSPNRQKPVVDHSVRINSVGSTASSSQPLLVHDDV
Please respond with reported GI50 for every item in the list.
Numbers only, in nM.

Consider the reported GI50 for these compounds:
| COMPOUND | EXPERIMENTAL_TARGET | GI50 [nM] |
| --- | --- | --- |
| COc1cc2nccc(Oc3cccc(NC(=O)Nc4ccc(N5CCC(NC(=O)C6CCN(C(=O)C7CC7)CC6)CC5)c(C(F)(F)F)c4)c3)c2cc1OC | Mast/stem cell growth factor receptor Kit (Homo sapiens), P10721 [T670I] | 120 |
| COc1cc2nccc(Oc3cccc(NC(=O)Nc4ccc(N5CCC(NC(=O)CCC6CCCCN6C)CC5)c(C(F)(F)F)c4)c3)c2cc1OC (centres undefined) | Mast/stem cell growth factor receptor Kit (Homo sapiens), P10721 [T670I] | 200 |
| COc1cc2nccc(Oc3cccc(NC(=O)Nc4ccc(N5CCC(NC(=O)CN)CC5)c(C(F)(F)F)c4)c3)c2cc1OC | Mast/stem cell growth factor receptor Kit (Homo sapiens), P10721 [T670I] | 581 |

Turning now to a further record.
Per the record, COc1cc2nccc(Oc3cccc(NC(=O)Nc4ccc(N5CCC(NC(=O)C6CCNC(C)C6)CC5)c(C(F)(F)F)c4)c3)c2cc1OC (centres undefined) has GI50 of 650
